- Tested on: p70 ribosomal protein S6 kinase (P70s6K1)
- assayMethodText: Panel of protein kinases: P70s6K1
- Format: biochemical
- assayContext: method of Davies et al.

| smilesRecord | Kinase P70s6K1 inhibition |
| --- | --- |
| CCNCc1cncc(-c2ccc3[nH]nc(-c4nc5c(NC(C)=O)cccc5[nH]4)c3c2)c1C | − (Weak inhibition <50%) |
| CCNCc1cncc(-c2ccc3[nH]nc(-c4nc5c(F)cc(F)cc5[nH]4)c3c2)c1C | − (Weak inhibition <50%) |
| CCNCc1cncc(-c2ccc3[nH]nc(-c4nc5c(SC)cccc5[nH]4)c3c2)c1C | − (Weak inhibition <50%) |
